relative viability values for the compounds below.
- Tested on: BEN
- ASSAY_SUMMARY: relative viability (nuclei count vs DMSO), 5 days (fraction); higher = more cells survive
- MEASUREMENT_CONDITIONS: first compound 0.4 µM
The answer should be a number; do not append a unit.

>>> reading("Clc1ccc(Nc2nnc(Cc3ccncc3)c3ccccc23)cc1 [Vatalanib] + CS(=O)(=O)CCNCc1ccc(-c2ccc3ncnc(Nc4ccc(OCc5cccc(F)c5)c(Cl)c4)c3c2)o1 [Lapatinib] (partner 2 µM)")
0.806

Asked: So what's the measured relative viability for this one? Clc1ccc(Nc2nnc(Cc3ccncc3)c3ccccc23)cc1 [Vatalanib] + CCNC(=O)c1noc(-c2cc(C(C)C)c(O)cc2O)c1-c1ccc(CN2CCOCC2)cc1 [Luminespib] (partner 0.01 µM)
Given back: 0.514

Asked: How about this compound: C[C@@H]1CN(CC(=O)Nc2ccc3c(c2)Cc2cccc(-c4cc(=O)cc(N5CCOCC5)o4)c2S3)C[C@H](C)O1 + Nc1ncn([C@H]2C[C@H](O)[C@@H](CO)O2)c(=O)n1 [Decitabine] (partner 2 µM)
Given back: 0.81

Asked: Can you handle Clc1ccc(Nc2nnc(Cc3ccncc3)c3ccccc23)cc1 [Vatalanib] + O=C(CCCCCCC(=O)Nc1ccccc1)NO [Vorinostat] (partner 1 µM) next?
Given back: 0.594

Asked: // query: C[C@@H]1CN(CC(=O)Nc2ccc3c(c2)Cc2cccc(-c4cc(=O)cc(N5CCOCC5)o4)c2S3)C[C@H](C)O1 + N=C(N)NC(=N)NCCc1ccccc1 [Phenformin] (partner 250 µM)
Given back: 0.294
